molecular target: 11β-HSD1 (Homo sapiens); construct: detecting cortisol generated from cortisterone by human liver microsomes; from tissue; host or cells: human liver microsomes; test: In vitro inhibition of 11β-HSD1, HTRF detection of cortisol generated from cortisone by human liver microsomes; assay type: biochemical; conditions: 11β-HSD IC50 (nM), 1 hour at 37° C., pH 6.0, NADPH 200 μM, cortisone 80 nM, inhibition relative to carbenoxolone signal
Sequence (P28845 whole entry): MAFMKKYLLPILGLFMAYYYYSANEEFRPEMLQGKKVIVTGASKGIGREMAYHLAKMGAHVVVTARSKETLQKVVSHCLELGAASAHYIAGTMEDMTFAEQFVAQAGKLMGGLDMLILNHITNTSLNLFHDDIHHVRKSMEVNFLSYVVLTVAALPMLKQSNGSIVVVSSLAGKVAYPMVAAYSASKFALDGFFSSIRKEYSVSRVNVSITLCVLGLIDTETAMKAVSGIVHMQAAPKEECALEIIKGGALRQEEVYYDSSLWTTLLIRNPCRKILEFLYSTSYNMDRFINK
Criterion: IC50 strictly under 900 nM. Met: MET. Not met: NOT MET.

[[record]]
compound = "Cc1nnc(-c2ccc3c(c2)[C@]2(C)CCN(C(=O)c4ccc5nc[nH]c5c4)[C@H](C3)[C@H]2C)n1C"
classification = "MET"

[[record]]
compound = "COc1cc2c(cc1C)[C@@]1(C)CCN(C(=O)c3ccc4nc[nH]c4c3)[C@@H](C2)C1(C)C (stereo in doubt)"
classification = "MET"

[[record]]
compound = "Cc1cccc2c1C[C@H]1N(C(=O)c3ccc4nc[nH]c4c3)CC[C@]2(C)C1(C)C"
classification = "MET"

[[record]]
compound = "CC1(C)[C@H]2Cc3ccccc3[C@]1(C)CCN2C(=O)c1ccc([N+](=O)[O-])cc1"
classification = "NOT MET"


Task item: I wonder whether CC1(C)[C@H]2Cc3ccccc3[C@]1(C)CCN2C(=O)c1cccc(S(N)(=O)=O)c1 has IC50 below 900 nM. Can you tell?
Reply: NOT MET

Task item: Below 900 nM on IC50? Entry CN(C)C(=O)c1cccc(C(=O)N2CC[C@@]3(C)c4cccc(O)c4C[C@@H]2C3(C)C)c1
Reply: NOT MET

Task item: Is IC50 of COc1ccc2c(c1[N+](=O)[O-])[C@]1(C)CCN(C(=O)c3ccc4nc[nH]c4c3)[C@H](C2)[C@H]1C strictly below 900 nM?
Reply: MET

====

biological target: 11β-HSD1 (Homo sapiens); construct: detecting cortisol generated from cortisterone by human liver microsomes; from tissue; host or cells: human liver microsomes; assay: In vitro inhibition of 11β-HSD1, HTRF detection of cortisol generated from cortisone by human liver microsomes; format: biochemical; conditions: 1 hour at 37° C., pH 6.0, NADPH 200 μM, cortisone 80 nM, inhibition relative to carbenoxolone signal, read-out: 11β-HSD IC50
QUANTITY_NAME: pIC50
Give bare numbers, as −log10 of the molar value.

Check out these entries, answers already filled in.
[[record]]
compound = "CC12CCCN(C(=O)c3ccc4nc[nH]c4c3)C(Cc3ccccc31)C2 (stereo not drawn) [Example 324]"
measured = 6.92

[[record]]
compound = "C[C@H]1[C@H]2CC3=CC(C#N)CC=C3[C@]1(C)CCN2C(=O)c1ccc2nc[nH]c2c1 (stereo partly drawn) [Example 236]"
measured = 6.72


Okay, next one:
Task item: If you can, please state the reported pIC50 value of O=C(c1ccc2nc[nH]c2c1)N1CC[C@@H]2C[C@H]1Cc1cccnc12 (racemic) [Example 325] .
Reply: 6.11

====

target: 11β-HSD1 (Homo sapiens); construct: detecting cortisol generated from cortisterone by human liver microsomes; from tissue; host or cells: human liver microsomes; assay: In vitro inhibition of 11β-HSD1, HTRF detection of cortisol generated from cortisone by human liver microsomes; format: biochemical; details: 11β-HSD IC50 (nM), 1 hour at 37° C., pH 6.0, NADPH 200 μM, cortisone 80 nM, inhibition relative to carbenoxolone signal
Exercise: for every item that follows, state its recorded IC50.
Give bare numbers, in nM.

[[record]]
compound = "Cc1cc2c(cc1O)C[C@H]1N(C(=O)c3ccc4nc[nH]c4c3)CC[C@]2(C)C1(C)C (stereo in doubt)"
measured = 32

[[record]]
compound = "C[C@H]1[C@@H]2Cc3ccc(O)cc3[C@@]1(C)CCN2C(=O)c1ccc2nc[nH]c2c1"
measured = 321

[[record]]
compound = "CC(=O)c1cccc(C(=O)N2CC[C@@]3(C)c4ccccc4C[C@@H]2C3(C)C)c1"
measured = 979


I would be grateful if you could provide IC50 for each of the following entries.
1. CC1(C)[C@@H]2Cc3ccc(O)cc3[C@@]1(C)CCN2C(=O)c1ccc2nc[nH]c2c1
2. CC1(C)[C@H]2Cc3c(O)cccc3[C@]1(C)CCN2C(=O)c1ccc(C(N)=O)cc1
3. CCNC(=O)c1ccc(C(=O)N2CC[C@@]3(C)c4cccc(O)c4C[C@@H]2C3(C)C)cc1
4. CC(O)c1ccc2c(c1)[C@]1(C)CCN(C(=O)c3ccc4nc[nH]c4c3)[C@H](C2)C1(C)C (stereo partly shown)
5. O=C(c1ccc2nc[nH]c2c1)N1CCC2(c3ccccc3)CC1Cc1ccc(O)cc12 (stereo not shown)
6. CC12CCN(C(=O)c3ccc4nc[nH]c4c3)C(Cc3cc(C(N)=O)ccc31)C2(C)C (stereo not shown)
7. CC1(C)[C@H]2Cc3c(O)cccc3[C@]1(C)CCN2C(=O)c1ccc(CN2CCC(O)C2)cc1 (stereo partly shown)
8. CC1(C)[C@H]2Cc3c(ccc4[nH]cnc34)[C@]1(C)CCN2C(=O)c1ccc2nc[nH]c2c1

Reply:
[1370, 85, 2810, 31, 374, 249, 2920, 571]

// for each compound below, give its IC50
1. CCCN(C)C(=O)c1ccc(C(=O)N2CC[C@@]3(C)c4cccc(O)c4C[C@@H]2C3(C)C)cc1
2. Cc1nc2cc3c(cc2[nH]1)[C@]1(C)CCN(C(=O)c2ccc4nc[nH]c4c2)[C@H](C3)C1(C)C

Reply:
291
24
